// provenance: ChEMBL document CHEMBL3124908

# Test system: MDA-MB-231
# ASSAY: Cytotoxicity against human MDA-MB-231 cells after 5 days by trypan blue exclusion assay
# Type: functional, cell-based
# ASSAY_CONTEXT: MDA-MB-231, 120 h
Record form. Attribute: pIC50. Fill in for each entry.
Answers are plain numbers, as −log10 of the molar value.

Here's what some known entries look like.
CC(C)Cn1ccnc1/C=C/C(=O)/C=C/c1nccn1CC(C)C
6.82
CCC(C)n1ccnc1/C=C/C(=O)/C=C/c1nccn1C(C)CC (stereo not given)
6.89

Give pIC50 for all molecules that follow.
1. Cc1cc(/C=C/C(=O)/C=C/c2cc(C)no2)on1
2. COc1cc(/C=C/C(=O)CC(=O)/C=C/c2ccc(O)c(OC)c2)ccc1O
3. O=C(/C=C/c1ccccn1)/C=C/c1ccccn1

6.81
6.06
7.01
